Hi there, I'd appreciate the recorded MFI for every entry that follows.
target.of.assay: T1, CD96 (UniProt P40200 22-585, limits assumed)
T1 construct: whole, on cells
T1 sequence (looked up): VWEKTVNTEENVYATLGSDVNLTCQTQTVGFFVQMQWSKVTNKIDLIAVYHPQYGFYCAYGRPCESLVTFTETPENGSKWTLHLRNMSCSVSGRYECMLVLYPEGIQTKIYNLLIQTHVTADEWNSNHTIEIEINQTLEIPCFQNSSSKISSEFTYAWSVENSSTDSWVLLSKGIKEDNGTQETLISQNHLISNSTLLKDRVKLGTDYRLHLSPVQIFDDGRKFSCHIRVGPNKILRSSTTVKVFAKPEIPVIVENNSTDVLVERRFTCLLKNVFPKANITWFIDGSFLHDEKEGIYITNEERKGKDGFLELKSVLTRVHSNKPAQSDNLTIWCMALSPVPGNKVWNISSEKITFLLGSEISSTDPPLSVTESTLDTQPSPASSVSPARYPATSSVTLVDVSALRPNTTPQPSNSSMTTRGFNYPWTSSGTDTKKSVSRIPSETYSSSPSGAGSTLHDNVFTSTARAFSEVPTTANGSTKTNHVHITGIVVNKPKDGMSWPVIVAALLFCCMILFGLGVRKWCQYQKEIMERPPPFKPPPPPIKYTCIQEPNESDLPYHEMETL
experiment: flow cytometry on CD96-expressing cells
Answers are plain numbers, in MFI.

Worked examples follow.
- binder: "variant CD155 IgV-Fc A81V/L83P (Fc fusion, not shown: a dimerising Fc or GST) WPPPGTGDVVVQAPTQVPGFLGDSVTLPCYLQVPNMEVTHVSQLTWARHGESGSMAVFHQTQGPSYSESKRLEFVAARLGVEPRNASLRMFGLRVEDEGNYTCLFVTFPQGSRSVDIWLRVL"
  MFI, MFI: 2620
- binder: "variant CD155 IgV-Fc P18L/L79V/F91S (Fc fusion, not shown: a dimerising Fc or GST) WPPPGTGDVVVQAPTQVLGFLGDSVTLPCYLQVPNMEVTHVSQLTWARHGESGSMAVFHQTQGPSYSESKRLEFVAARVGAELRNASLRMSGLRVEDEGNYTCLFVTFPQGSRSVDIWLRVL"
  MFI, MFI: 3280
- binder: "wild-type CD155 IgV-Fc (Fc fusion, not shown: a dimerising Fc or GST) WPPPGTGDVVVQAPTQVPGFLGDSVTLPCYLQVPNMEVTHVSQLTWARHGESGSMAVFHQTQGPSYSESKRLEFVAARLGAELRNASLRMFGLRVEDEGNYTCLFVTFPQGSRSVDIWLRVL"
  MFI, MFI: 3080

Alright, here's another binder for you.
Query: Would you mind telling me what MFI value was observed for variant CD155 IgV-Fc P18T/F91S/R94H (Fc fusion, not shown: a dimerising Fc or GST) WPPPGTGDVVVQAPTQVTGFLGDSVTLPCYLQVPNMEVTHVSQLTWARHGESGSMAVFHQTQGPSYSESKRLEFVAARLGAELRNASLRMSGLHVEDEGNYTCLFVTFPQGSRSVDIWLRVL ?
Result: 2510

Source listed as patent US20210130436A1.
